System: OVCAR-4 ovarian
Test: NCI tumour cell line growth inhibition, 48 h; in the data active = GI50 below about 0.43 µM; inactive = the rest
Give your call using only these classes: 1.0 (active), 0.0 (inactive)

molecule	answer label
COc1cc2nc(Cl)nc(Nc3cccc(C(=O)/C=C/c4ccccc4)c3)c2cc1OC	0.0

Query: Any idea what this test logged for CSc1nnc(CCSc2ccnc3c(C(F)(F)F)cccc23)o1 ?
Result: 0.0

Query: Any idea what this test logged for COc1cc(Cn2cc3c(c2)-c2oncc2CC3)cc(OC)c1OC ?
Result: 1.0

----------
System: ACHN renal
Assay: NCI tumour cell line growth inhibition, 48 h; in the data active = GI50 below about 0.43 µM; inactive = the rest
Give your call using only these classes: active, inactive

Below are worked cases with known answers.
molecule	answer label
COc1ccc2c(c1)CC[C@@H]1[C@@H]2CC[C@]2(C)C(=O)C3(CCCCC3)C[C@@H]12	inactive
COc1cc2cc(Oc3ccc(NC(=O)Nc4ccc(Cl)c(C(F)(F)F)c4)cc3)c(C)nc2cc1OCCN1CCCCC1	inactive
CCc1c(C)[nH]c(/C=C2\N=C(c3ccc[nH]3)C=C2OC)c1C	active
COc1cccc(C2=C(c3cn(C)c4ccccc34)C(=O)NC2=O)c1	inactive
CCCN(Cc1ccc(F)cc1)c1ccc(CO)c(Cl)c1	inactive

Kindly consider the entry below.
Query: Any idea what this test logged for Nc1nc(/C=C\c2ccc([N+](=O)[O-])o2)nc(N2CCN(c3ccccc3)CC2)n1 ?
Result: inactive
